These entries and their values trace back to patent US20230135635A1.

Kindly state IC50 for each of the entries shown.
# testedTarget: recombinant human ULK1 protein (1-649) (Homo sapiens)
# Construct: recombinant human ULK1 protein (1-649, SignalChem #U01-11G); purchased SignalChem U01-11G
# Sequence (O75385 1-649): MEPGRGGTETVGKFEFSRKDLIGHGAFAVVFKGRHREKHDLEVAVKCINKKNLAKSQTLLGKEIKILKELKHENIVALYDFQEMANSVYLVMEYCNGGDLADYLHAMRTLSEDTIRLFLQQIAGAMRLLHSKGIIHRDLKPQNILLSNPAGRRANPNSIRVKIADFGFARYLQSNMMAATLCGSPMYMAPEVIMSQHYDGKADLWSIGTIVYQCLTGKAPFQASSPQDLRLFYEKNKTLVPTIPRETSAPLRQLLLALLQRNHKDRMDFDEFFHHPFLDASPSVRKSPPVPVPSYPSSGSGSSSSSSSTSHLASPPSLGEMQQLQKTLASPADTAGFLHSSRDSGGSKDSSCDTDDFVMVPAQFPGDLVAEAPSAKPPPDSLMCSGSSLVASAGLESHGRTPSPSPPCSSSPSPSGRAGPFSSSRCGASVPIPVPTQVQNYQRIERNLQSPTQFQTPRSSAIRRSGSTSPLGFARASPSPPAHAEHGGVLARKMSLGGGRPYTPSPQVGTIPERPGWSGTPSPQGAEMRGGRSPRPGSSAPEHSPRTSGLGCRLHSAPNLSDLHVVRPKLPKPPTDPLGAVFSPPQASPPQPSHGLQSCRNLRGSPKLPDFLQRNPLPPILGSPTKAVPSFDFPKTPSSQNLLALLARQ
# experimentalProtocol: ULK1 inhibition assay (ADP Glo)
# Type: biochemical
# particulars: Table 3

Suppose we examine the molecule `C#CCN1CCN(c2ccc(Nc3ncc(Br)c(Nc4ccccc4C(=O)NC)n3)cc2)CC1` ; what IC50 value has been reported?
5 to 100 nM

Suppose we examine the molecule `COc1cc(Nc2ncc(Br)c(Nc3ccccc3CN(CCO)CCO)n2)cc(OC)c1OC` ; what IC50 value has been reported?
5 to 100 nM

Suppose we examine the molecule `COc1cc(Nc2ncc(Br)c(Nc3ccccc3CN3CCN(C)CC3)n2)cc(OC)c1OC` ; what IC50 value has been reported?
> 100 nM

Suppose we examine the molecule `COc1cc(Nc2ncc(Br)c(Nc3ccccc3C(=O)NCC(F)F)n2)cc(OC)c1OC` ; what IC50 value has been reported?
5 to 100 nM

Suppose we examine the molecule `CNC(=O)c1ccccc1Nc1nc(Nc2cccc(OC)c2)ncc1Br` ; what IC50 value has been reported?
5 to 100 nM

Suppose we examine the molecule O=c1[nH]c2ccc(Nc3ncc(C(F)(F)F)c(NC4CC4)n3)cc2[nH]1 [Compound D1] ; what IC50 value has been reported?
5 to 100 nM

###

Kindly state pIC50 for each of the entries shown.
# testedTarget: recombinant human ULK1 protein (1-649) (Homo sapiens, UniProt O75385)
# Construct: recombinant human ULK1 protein (1-649, SignalChem #U01-11G); purchased SignalChem U01-11G
# experimentalProtocol: ULK1 inhibition assay (ADP Glo)
# Type: biochemical
# particulars: Table 1; 25 uM ATP, MBP substrate, one hour
pIC50: −log10 of the molar value.

Suppose we examine the molecule CNC(=O)c1ccccc1Nc1nc(Nc2ccc3c(c2)CC[N+](C)(C)C3)ncc1Br [Compound A143] ; what pIC50 value has been reported?
< 8.00

Suppose we examine the molecule CNC(=O)c1ccccc1Nc1nc(Nc2ccc3c(c2)CN(CCC(N)=O)CC3)ncc1Br [Compound A166] ; what pIC50 value has been reported?
< 8.00

Suppose we examine the molecule FC(F)(F)c1cnc(Nc2ccc3c(c2)CN(CCS)CC3)nc1NC1CC1 [Compound A78] ; what pIC50 value has been reported?
> 9.00

Suppose we examine the molecule CNC(=O)c1ccccc1Nc1nc(Nc2ccc3c(c2)CCN(C)C3)ncc1Br [Compound A135] ; what pIC50 value has been reported?
< 8.00

Suppose we examine the molecule CNC(=O)c1ccccc1Nc1nc(Nc2ccc3c(c2)CN(Cc2ccncc2)CC3)ncc1Br [Compound A162] ; what pIC50 value has been reported?
< 8.00

Suppose we examine the molecule CNC(=O)c1ccccc1Nc1nc(Nc2ccc3c(c2)CCN(S(N)(=O)=O)C3)ncc1Br [Compound A140] ; what pIC50 value has been reported?
< 8.00

Suppose we examine the molecule O=C(CN1CCc2cc(Nc3ncc(C(F)(F)F)c(NC4CC4)n3)ccc2C1)N1CCOCC1 [Compound A47] ; what pIC50 value has been reported?
> 9.00

Suppose we examine the molecule FC(F)(F)c1cnc(Nc2ccc3c(c2)CCN(CC2CNC2)C3)nc1NC1CC1 [Compound A41] ; what pIC50 value has been reported?
> 9.00

###

# testedTarget: recombinant human ULK1 protein (1-649) (Homo sapiens, UniProt O75385)
# Construct: recombinant human ULK1 protein (1-649, SignalChem #U01-11G); purchased SignalChem U01-11G
# experimentalProtocol: ULK1 inhibition assay (ADP Glo)
# Format: biochemical
# particulars: Table 1; 25 uM ATP, MBP substrate, one hour
observable: IC50

Suppose we examine the compound O=C(O)CCN1CCc2ccc(Nc3ncc(C(F)(F)F)c(NC4CC4)n3)cc2C1 [Compound A88] ; what IC50 value has been reported?
1 to 10 nM

Suppose we examine the compound N[C@@H](CO)C(=O)N1CCc2ccc(Nc3ncc(C(F)(F)F)c(NC4CC4)n3)cc2C1 [Compound A96] ; what IC50 value has been reported?
> 10 nM

Suppose we examine the compound OCCN1CCc2cc(Nc3ncc(C(F)(F)F)c(NC4CC4)n3)ccc2C1 [Compound A53] ; what IC50 value has been reported?
< 1 nM

Suppose we examine the compound Cn1nccc1CN1CCc2cc(Nc3ncc(C(F)(F)F)c(NC4CC4)n3)ccc2C1 [Compound A63] ; what IC50 value has been reported?
< 1 nM

###

# testedTarget: recombinant human ULK1 protein (1-649) (Homo sapiens)
# Construct: recombinant human ULK1 protein (1-649, SignalChem #U01-11G); purchased SignalChem U01-11G
# experimentalProtocol: ULK1 inhibition assay (ADP Glo)
# Type: biochemical
# particulars: Table 1; 25 uM ATP, MBP substrate, one hour
pIC50: −log10 of the molar value.
Kindly state pIC50 for each of the entries shown.

Suppose we examine the compound `NC(=O)CN1CCc2cc(Nc3ncc(C(F)(F)F)c(NC4CC4)n3)ccc2C1` ; what pIC50 value has been reported?
< 8.00

Suppose we examine the compound `CN1CCc2cc(Nc3ncc(C(F)(F)F)c(NC4CC4)n3)ccc2C1` ; what pIC50 value has been reported?
> 9.00

Suppose we examine the compound CN1CCC(N2CCc3cc(Nc4ncc(C(F)(F)F)c(NC5CC5)n4)ccc3C2)C1 (centres unmarked) ; what pIC50 value has been reported?
> 9.00

Suppose we examine the compound `O=C(NCC(F)(F)F)c1cnc(Nc2ccc3c(c2)CCNC3)nc1NC1CC1` ; what pIC50 value has been reported?
< 8.00

Suppose we examine the compound `CNCC(=O)N1CCc2cc(Nc3ncc(Br)c(Nc4ccccc4C(=O)NC)n3)ccc2C1` ; what pIC50 value has been reported?
< 8.00

Suppose we examine the compound `NC(=O)CCN1CCc2cc(Nc3ncc(C(F)(F)F)c(NC4CC4)n3)ccc2C1` ; what pIC50 value has been reported?
> 9.00

Suppose we examine the compound `CNC(=O)c1ccccc1Nc1nc(Nc2ccc3c(c2)CCNC3)ncc1Br` ; what pIC50 value has been reported?
< 8.00

Suppose we examine the compound `CNC(=O)c1ccccc1Nc1nc(Nc2ccc3c(c2)CCN(Cc2ccncn2)C3)ncc1Br` ; what pIC50 value has been reported?
< 8.00

Suppose we examine the compound `CNC(=O)c1ccccc1Nc1nc(Nc2ccc3c(c2)CN(Cc2ccccn2)CC3)ncc1Br` ; what pIC50 value has been reported?
< 8.00

Suppose we examine the compound O=C(C1CCN1)N1CCc2cc(Nc3ncc(C(F)(F)F)c(NC4CC4)n3)ccc2C1 (centres unmarked) ; what pIC50 value has been reported?
8.00 to 9.00

Suppose we examine the compound `NCC(=O)N1CCc2cc(Nc3ncc(C(F)(F)F)c(NC4CC4)n3)ccc2C1` ; what pIC50 value has been reported?
> 9.00

Suppose we examine the compound `FC(F)(F)c1cnc(Nc2ccc3c(c2)CN(CCN2CCOCC2)CC3)nc1NC1CC1` ; what pIC50 value has been reported?
8.00 to 9.00

Suppose we examine the compound `CNC(=O)c1ccccc1Nc1nc(Nc2ccc3c(c2)CN(Cc2cccnc2)CC3)ncc1Br` ; what pIC50 value has been reported?
< 8.00

Suppose we examine the compound O=C(O)C[C@H](NC(=O)OCc1ccccc1)C(=O)N1CCc2cc(Nc3ncc(C(F)(F)F)c(NC4CC4)n3)ccc2C1 (racemic) ; what pIC50 value has been reported?
> 9.00

Suppose we examine the compound `COCCN1CCc2cc(Nc3ncc(C(F)(F)F)c(N4CCc5ccccc54)n3)ccc2C1` ; what pIC50 value has been reported?
< 8.00

Suppose we examine the compound `CC(C)(C)OC(=O)NCCC(=O)N1CCc2cc(Nc3ncc(C(F)(F)F)c(NC4CC4)n3)ccc2C1` ; what pIC50 value has been reported?
> 9.00

Suppose we examine the compound `O=C(O)CCC(=O)N1CCc2cc(Nc3ncc(C(F)(F)F)c(NC4CC4)n3)ccc2C1` ; what pIC50 value has been reported?
> 9.00
